Tested on: primary cultured guinea-pig urinary bladder (GPB) cells
assay_details: Membrane hyperpolarization (MHP) assay, DiBAC(4)3 / FLIPR
Format: cell-based
test_conditions: Cavia porcellus, membrane hyperpolarization in GPB cells
Recorded EC50 by entry
Just the number in nM, nothing appended.

The examples below pair each entry with its known result.
# compound, measurement_label, unit_string, observed_result
measured = [
    ("CC1=C(C#N)C(c2ccc(F)c(Cl)c2)C2=C(CCNC2=O)N1 (stereo not drawn)", "EC50", "nM", 110),
    ("CC1=C(C#N)C(c2ccc(F)c(Br)c2)C2=C(CCOC2=O)N1 (stereo not drawn)", "EC50", "nM", 22),
    ("COC(=O)C1=C(C)NC2=C(C(=O)OCC2)C1c1ccc(F)c(C(F)(F)F)c1 (stereo not drawn)", "EC50", "nM", 4000),
    ("CC1=C(C#N)C(c2cc(F)c(F)cc2F)C2=C(CCNC2=O)N1 (stereo not drawn)", "EC50", "nM", 2600),
    ("CC1=C(C#N)C(c2ccc(F)c(F)c2)C2=C(CCNC2=O)N1 (stereo not drawn)", "EC50", "nM", 890),
    ("CC1=C(C#N)C(c2ccc(F)c(Br)c2)c2c(cc[nH]c2=O)N1 (racemic)", "EC50", "nM", 13),
    ("O=C1NCCC2=C1C(c1ccc(F)c(Br)c1)C(C(=O)c1ccccc1)=C(c1ccccc1)N2 (stereo not drawn)", "EC50", "nM", 18000),
    ("CC1=C(C#N)C(c2ccc(F)c(Br)c2)C2=C(CCNC2=O)N1 (racemic) [Example 1]", "EC50", "nM", 52),
]

Then this compound:
Prompt line: Give a short answer stating reported EC50 for CC(=O)C1=C(C)Nc2cc[nH]c(=O)c2C1c1ccc(F)c(Br)c1 (stereo not drawn) [Example 19] .
Response line: 620
